B1: Homeobox protein SIX3, residues 212 to 262; numbered along this chain, O95343 (parent)
chain: CFKERTRSLLREWYLQDPYPNPSKKRELAQATGLTPTQVGNWFKNRRQRDR

- Variants of: B1
- test method notes: abundance fitness (aPCA) (normalised: wild type 0, dead -1); higher = more abundant; growth selection in yeast, the domain comes from the species named
- measurement parameters: Homo sapiens
The threshold is inclusive: abundance fitness of exactly -0.8 counts as Satisfied; values below receive Not satisfied.

>>> assigned_class("CFKERTRSLLREWYLQDPYPNDSKKRELAQATGLTPTQVGNWFKNRRQRDR [P22D]")
"Satisfied"
>>> assigned_class("CFKERTRSLLREWYLQDPYPNPSKKRELAQATGLTPCQVGNWFKNRRQRDR [T37C]")
"Satisfied"
>>> assigned_class("CFKERTRSLLREWYLQDPYPNPSLKRELAQATGLTPTQVGNWFKNRRQRDR [K24L]")
"Satisfied"
>>> assigned_class("CFKERTRSLLREWYLQDPYPNPSKKRELAQATGLTPNQVGNWFKNRRQRDR [T37N]")
"Satisfied"
>>> assigned_class("CFKERTRSLLREWYLQDPYPNPSKKRELAQATGLTPTQVANWFKNRRQRDR [G40A]")
"Satisfied"
>>> assigned_class("CFKERTRSLLREWYLQDPYPNPSKKRELAQATGLTPTNVGNWFKNRRQRDR [Q38N]")
"Satisfied"
>>> assigned_class("CFKERTRSLLREWYLQDPYPNPSKKRELAQATGLTPTKVGNWFKNRRQRDR [Q38K]")
"Not satisfied"
>>> assigned_class("CFKERTRSLLREWYLQDPYPNPSKKRELAGATGLTPTQVGNWFKNRRQRDR [Q30G]")
"Satisfied"
>>> assigned_class("CFKERTRSLLREWYLQDPYPNPQKKRELAQATGLTPTQVGNWFKNRRQRDR [S23Q]")
"Satisfied"
>>> assigned_class("CFKERTRSLLREWYLQDPYPNPSKKMELAQATGLTPTQVGNWFKNRRQRDR [R26M]")
"Satisfied"
>>> assigned_class("CFKERTRSLLREWYLQDPYPNPSKKRELAQATGLTSTQVGNWFKNRRQRDR [P36S]")
"Satisfied"
>>> assigned_class("CFKERTRSLLREWYLQDPYPNPSKKRELAQFTGLTPTQVGNWFKNRRQRDR [A31F]")
"Satisfied"
>>> assigned_class("CFKERTRSLLREWYLQDPYPNPSKKRELAQATGLTPTQRGNWFKNRRQRDR [V39R]")
"Not satisfied"
>>> assigned_class("CFKERTRSLLREWYLQDPYPNPSKKRELAQATGLTPTQFGNWFKNRRQRDR [V39F]")
"Not satisfied"
>>> assigned_class("CFKERTRSLLREWYLQDPYPNPSKKRELAQPTGLTPTQVGNWFKNRRQRDR [A31P]")
"Not satisfied"
>>> assigned_class("CFKERTRSLLREWYLQDPYPNPSKKHELAQATGLTPTQVGNWFKNRRQRDR [R26H]")
"Satisfied"
>>> assigned_class("CFKERTRSLLREWYLQDPYPNPSKKRELAQATGLTPTQVCNWFKNRRQRDR [G40C]")
"Satisfied"
>>> assigned_class("CFKERTRSLLREWYLQDPYPNPSKKRELAQATGLTPTQVSNWFKNRRQRDR [G40S]")
"Satisfied"
>>> assigned_class("CFKERTRSLLREWYLQDPYPNPRKKRELAQATGLTPTQVGNWFKNRRQRDR [S23R]")
"Satisfied"
>>> assigned_class("CFKERTRSLLREWYLQDPYPNPSKKRELAQATGLTPTQVGNCFKNRRQRDR [W42C]")
"Not satisfied"
